# Tested System: Sodium-dependent noradrenaline transporter (Homo sapiens)
# Sequence (P23975 whole entry): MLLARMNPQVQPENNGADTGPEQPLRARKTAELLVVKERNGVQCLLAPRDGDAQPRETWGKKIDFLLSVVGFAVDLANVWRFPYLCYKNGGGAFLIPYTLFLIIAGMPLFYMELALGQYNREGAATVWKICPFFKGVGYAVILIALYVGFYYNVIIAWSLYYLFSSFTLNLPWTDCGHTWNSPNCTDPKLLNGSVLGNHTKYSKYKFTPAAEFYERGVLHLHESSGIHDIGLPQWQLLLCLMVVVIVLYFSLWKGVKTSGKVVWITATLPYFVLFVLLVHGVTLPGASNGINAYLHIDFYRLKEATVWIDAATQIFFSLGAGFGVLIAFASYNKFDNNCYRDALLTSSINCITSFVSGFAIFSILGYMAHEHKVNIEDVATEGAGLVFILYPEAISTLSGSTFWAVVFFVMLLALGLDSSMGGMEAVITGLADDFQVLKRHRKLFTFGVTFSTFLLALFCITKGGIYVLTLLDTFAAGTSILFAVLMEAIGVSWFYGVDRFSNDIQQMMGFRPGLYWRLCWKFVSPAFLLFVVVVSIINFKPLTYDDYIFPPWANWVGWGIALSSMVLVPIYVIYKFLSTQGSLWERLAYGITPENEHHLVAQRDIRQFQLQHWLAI
# Measurement Notes: Inhibition of [3H]NE uptake into human NET expressing HEK293 cells
Rule: IC50 below 1000 nM gives satisfied. Equal to or above 1000 nM gives not satisfied.

- CC(C)CC(c1ccc(Cl)c(Cl)c1)C1CCCCN1 (stereo in doubt; form 2): satisfied
- CC(C)CC(c1ccc(C(C)C)cc1)C1CCCCN1 (stereo not given): not satisfied
- CC(C)CCC(c1ccc(Cl)cc1)C1CCCCN1 (stereo in doubt; form 2): not satisfied
- Clc1ccc(C(CCCc2ccccc2)C2CCCCN2)cc1 (stereo in doubt; form 2): not satisfied
- CCCC(c1ccc(Cl)c(Cl)c1)C1CCCCN1 (stereo in doubt; form 1): satisfied

Input: Please let me know if CCC(CC)C(c1ccc(Cl)cc1)C1CCCCN1 (stereo in doubt; form 2) shows IC50 below 1000 nM.
Output: not satisfied

Input: Please let me know if CC(C)CC(c1ccc(Cl)c(Cl)c1)C1CCCCN1C (stereo not given) shows IC50 below 1000 nM.
Output: satisfied

Input: Please let me know if COc1ccc(C(CC(C)C)C2CCCCN2)cc1 (stereo in doubt; form 1) shows IC50 below 1000 nM.
Output: satisfied

Input: Please let me know if COc1cccc(C(CC(C)C)C2CCCCN2)c1 (stereo in doubt; form 2) shows IC50 below 1000 nM.
Output: not satisfied

Input: Please let me know if CC(C)CC(c1ccc(Cl)cc1)C1CCCCN1 (stereo in doubt; form 2) shows IC50 below 1000 nM.
Output: satisfied

---

# pKi annotations
# Tested System: Sodium-dependent dopamine transporter (Homo sapiens, UniProt Q01959)
# Sequence (Q01959 whole entry): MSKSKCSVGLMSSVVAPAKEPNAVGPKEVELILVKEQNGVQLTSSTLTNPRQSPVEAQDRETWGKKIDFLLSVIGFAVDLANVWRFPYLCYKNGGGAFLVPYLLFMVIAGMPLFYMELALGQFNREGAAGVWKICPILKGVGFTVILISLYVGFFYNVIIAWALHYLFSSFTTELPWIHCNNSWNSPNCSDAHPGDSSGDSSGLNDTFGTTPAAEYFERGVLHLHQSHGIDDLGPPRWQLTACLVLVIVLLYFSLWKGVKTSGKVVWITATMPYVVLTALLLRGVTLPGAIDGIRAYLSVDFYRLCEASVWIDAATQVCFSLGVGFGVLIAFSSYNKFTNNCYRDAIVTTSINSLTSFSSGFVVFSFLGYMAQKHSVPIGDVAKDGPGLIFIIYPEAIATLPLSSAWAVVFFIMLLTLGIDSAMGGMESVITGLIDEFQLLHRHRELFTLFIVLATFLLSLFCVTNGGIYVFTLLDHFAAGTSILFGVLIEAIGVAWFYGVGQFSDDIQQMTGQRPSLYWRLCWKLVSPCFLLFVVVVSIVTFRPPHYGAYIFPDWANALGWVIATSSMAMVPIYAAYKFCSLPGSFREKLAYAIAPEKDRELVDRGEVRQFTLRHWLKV
# Measurement Notes: Displacement of [125I]RTI-55 from human DAT expressing HEK293 cells
# Type: cell-based
Formally, pKi is defined as -log10 of the concentration c, with c in mol/L.

These recorded examples may help you get a feel for the data.
• CCCC(c1ccc(Cl)cc1)C1CCCCN1 (stereo not given) = 7.96
• CCCC(c1ccc(Cl)c(Cl)c1)C1CCCCN1 (stereo in doubt; form 2) = 7.37
• CCC(CC)C(c1ccc(Cl)cc1)C1CCCCN1 (stereo in doubt; form 1) = 6.40
• CCCCC(c1ccc(Cl)c(Cl)c1)C1CCCCN1 (stereo in doubt; form 1) = 8.64
• CCCCCC(c1ccc(Cl)cc1)C1CCCCN1 (stereo in doubt; form 1) = 7.64

Input: Query: pKi; subject: Clc1ccc(C(CCCc2ccccc2)C2CCCCN2)cc1 (stereo in doubt; form 1)
Output: 6.36

Input: Query: pKi; subject: CC(C)CCC(c1ccc(Cl)cc1)C1CCCCN1 (stereo in doubt; form 1)
Output: 8.44

Input: Query: pKi; subject: CC(c1ccc(Cl)cc1)C1CCCCN1 (stereo in doubt; form 1)
Output: 6.74

---

# Tested System: Sodium-dependent dopamine transporter (Homo sapiens)
# Measurement Notes: Inhibition of [3H]DA uptake at human DAT expressing HEK293 cells
Endpoint: pIC50
Formally, pIC50 is defined as -log10 of the concentration c, with c in mol/L.

These recorded examples may help you get a feel for the data.
• CCC(CC)C(c1ccc(Cl)cc1)C1CCCCN1 (stereo in doubt; form 1) = 6.62
• CCC(CC)C(c1ccc(Cl)cc1)C1CCCCN1 (stereo in doubt; form 2) = 5.92
• CC(C)CC(c1cccc(Cl)c1)C1CCCCN1 (stereo in doubt; form 2) = 7.06

Input: Query: pIC50; subject: CC(=O)C(c1ccccc1)C1CCCCN1 (stereo not given)
Output: 6.72

Input: Query: pIC50; subject: CCCC(c1ccc(Cl)c(Cl)c1)C1CCCCN1 (stereo in doubt; form 2)
Output: 7.06
